# Tested on: KIT;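 note: kd values determined as follow-up on hits from a single-replicate KINOMEscan panel screen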
pKd: −log10 of the molar value.
metric: pKd

>  <molecule>
CC(=O)Nc1nc2cnc(Nc3cc(NC(=O)c4cccc(CCC#N)c4)ccc3C)nc2s1

>  <metric>
pKd

>  <lt.gt.eq>
<

>  <number>
5.00

$$$$
>  <molecule>
Cc1ccc(NC(=O)Nc2cccc(C(F)(F)F)c2)cc1 [GSK955403]

>  <metric>
pKd

>  <lt.gt.eq>
=

>  <number>
6.62

$$$$
>  <molecule>
Cc1ccc(NC(=O)Nc2cccc(Cl)c2)cc1-c1ccc(C(=O)Nc2ccncc2)cc1 [GSK1398468]

>  <metric>
pKd

>  <lt.gt.eq>
=

>  <number>
6.74

$$$$
>  <molecule>
Cc1ccc(NC(=O)Nc2cc(C(C)(C)C)nn2-c2ccccc2)cc1 [GSK1014915]

>  <metric>
pKd

>  <lt.gt.eq>
=

>  <number>
6.59

$$$$
>  <molecule>
COC(=O)c1c(-c2ccccc2)c2cc(OC)ccc2c(=O)n1Cc1ccccc1

>  <metric>
pKd

>  <lt.gt.eq>
=

>  <number>
6.77

$$$$
>  <molecule>
Cn1ccc2ncnc(Oc3ccc(NC(=O)Nc4ccccc4)cc3)c21

>  <metric>
pKd

>  <lt.gt.eq>
=

>  <number>
9.22

$$$$
>  <molecule>
Cc1cccc(-c2nc(-c3ccc(S(C)(=O)=O)cc3)sc2-c2ccnc(NCCc3ccccc3)c2)c1

>  <metric>
pKd

>  <lt.gt.eq>
=

>  <number>
6.92

$$$$

====

Reported %Inh by item:
# Test system: TTK;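 note: KINOMEscan kinase panel screen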
# conditions.used: concentration: 1 μM, replicates: in singlicate; n = 1
metric: %Inh (%)

>  <molecule>
COC(=O)c1c(-c2ccccc2)c2cc(OC)ccc2c(=O)n1Cc1ccccc1

>  <number>
14

$$$$
>  <molecule>
CCCc1ccc(S(=O)(=O)NC2CCN(c3ccnc(Nc4ccc(F)cc4)n3)C2)cc1 (stereo not shown)

>  <number>
0

$$$$
>  <molecule>
CCn1c(-c2cccnc2O)nc2cnccc21

>  <number>
0

$$$$
>  <molecule>
COC(=O)c1c(-c2ccccc2)c2cc(C(=O)O)ccc2c(=O)n1Cc1ccccc1

>  <number>
4

$$$$
>  <molecule>
COc1cccc(-c2cc(-c3c[nH]nc3-c3ccccn3)ccn2)c1

>  <number>
23

$$$$
>  <molecule>
CS(=O)(=O)c1ccc(-c2c(-c3ncn[nH]3)sc(N3CCOCC3)c2C#N)cc1

>  <number>
21

$$$$
>  <molecule>
COc1ccc(C2=C(Nc3cccc(C(=O)O)c3)C(=O)NC2=O)cc1

>  <number>
10

$$$$
>  <molecule>
O=C(O)COc1ncnc2cc(-c3ccc4[nH]ncc4c3)sc12

>  <number>
0

$$$$
>  <molecule>
O=C(Nc1n[nH]c2nc(-c3nccs3)c(Br)cc12)C1CCCC1

>  <number>
13

$$$$
>  <molecule>
Cc1ccc(NC(=O)Nc2cc(C(C)(C)C)nn2-c2ccccc2)cc1

>  <number>
4

$$$$
>  <molecule>
Cc1nnc(-c2ccc3occ(-c4ccc(S(C)=O)cc4)c3c2)[nH]1 (stereo not shown)

>  <number>
8

$$$$
>  <molecule>
Cc1cccc(-c2nc(Nc3ccc4[nH]ncc4c3)c3ccccc3n2)n1

>  <number>
3

$$$$
>  <molecule>
CC(C)(C)c1ccc(C(=O)Nc2cn3cc(-c4cccnc4)ccc3n2)cc1

>  <number>
9

$$$$
>  <molecule>
Nc1nc(-c2nccs2)c(-c2ccnc3ccccc23)s1

>  <number>
14

$$$$
>  <molecule>
O=C(Nc1ccccc1)Nc1cccc(Oc2ccc3nccn3n2)c1

>  <number>
0

$$$$
>  <molecule>
Cc1cccc(-c2nc(Nc3cccc(C(N)=O)c3)c3ccccc3n2)n1

>  <number>
0

$$$$
>  <molecule>
Fc1cccc(COc2nnc(-c3ccc4c(c3)CCO4)o2)c1

>  <number>
14

$$$$
>  <molecule>
Cc1cccc(-c2nc(Nc3ccncc3)c3ccccc3n2)n1

>  <number>
10

$$$$
>  <molecule>
COc1ccc(Nc2nccc(-c3cccc(NC(=O)c4cc5cc(F)ccc5[nH]4)c3)n2)cc1

>  <number>
13

$$$$

meta.source: paper PMC5540273
